molecular target: SARS-CoV-2 spike protein (SARS-CoV-2), P0DTC2; assay: HT-SPR, Carterra LSA; mAb coupled to chip, antigen injected; 1:1 fit; details: remark: other sources report otherwise
quantity: kon (M⁻¹ s⁻¹)
Just the number in M⁻¹ s⁻¹, nothing appended.

Form field: reported kon of antibody 524 (antibody, V domains shown) VH: QVQLVESGGGVVQPGRSLRLSCAASGFTFSSYAMHWVRQAPGKGLEWVAVISYDGSNKYYADSVKGRFTISRDNSKNTLYLQMNSLRAEDTAVYYCAKAGGGSYYRGFDYWGQGTLVTVSS VL: QSVLTQPPSVSAAPGQKVTISCSGSNSNIGNNYVSWYQQLPGSAPKLLIYDNDKRPSGIPDRFSGSKSGTSATLGITGLQTGDEADYYCGAWDSSLTALVFGGGTKLTVL
78600
